Target: full-length beta-Catenin (Uniprot ID P35222) (Homo sapiens (Human)) (UniProt P35222)
Sequence (P35222 2-781 limits assumed): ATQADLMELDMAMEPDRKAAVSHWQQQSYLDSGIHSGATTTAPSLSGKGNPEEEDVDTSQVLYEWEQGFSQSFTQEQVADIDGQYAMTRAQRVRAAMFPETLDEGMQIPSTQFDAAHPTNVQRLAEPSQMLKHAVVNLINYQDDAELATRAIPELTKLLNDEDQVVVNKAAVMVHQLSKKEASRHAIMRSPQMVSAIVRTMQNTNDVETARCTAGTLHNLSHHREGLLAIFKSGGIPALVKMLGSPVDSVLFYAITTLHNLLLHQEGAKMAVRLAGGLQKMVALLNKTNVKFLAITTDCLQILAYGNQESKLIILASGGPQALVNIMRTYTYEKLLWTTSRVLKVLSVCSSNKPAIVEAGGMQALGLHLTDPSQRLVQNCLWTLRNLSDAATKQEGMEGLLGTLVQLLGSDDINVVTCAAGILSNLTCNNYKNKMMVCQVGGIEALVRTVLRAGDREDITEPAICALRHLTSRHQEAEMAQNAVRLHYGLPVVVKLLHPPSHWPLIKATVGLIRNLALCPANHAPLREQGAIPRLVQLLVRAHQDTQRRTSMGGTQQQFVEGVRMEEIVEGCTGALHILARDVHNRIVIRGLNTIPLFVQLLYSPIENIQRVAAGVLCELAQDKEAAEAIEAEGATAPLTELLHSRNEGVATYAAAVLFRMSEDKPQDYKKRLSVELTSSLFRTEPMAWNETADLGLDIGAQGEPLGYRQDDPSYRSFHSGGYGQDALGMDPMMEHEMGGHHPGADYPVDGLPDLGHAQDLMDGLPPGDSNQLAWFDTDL
Experiment: fluorescence polarization competition, 5FAM-TCF4 10-53 probe on full-length beta-catenin
Starred links: 1 amine or outer side, 2 acyl side, 3 side chain; linkers in the order of their positions; H or OH if unused. Positions of bridges follow the written chain, without caps; N, C: chain ends. Non-standard residues stand in square brackets, D forms with d. Primed or numbered codes have the meaning given here. PyrS2″ = (S)-3-amino-1-((pent-4-en-1-yloxy)carbonyl)pyrrolidine-3-carboxylic acid (stapling residue), C=CCCCOC(=O)N1CC[C@@](N[*:1])(C(=O)[*:2])C1; B5(4) = 2,2-bis(4-pentenyl)glycine = 2-amino-2-(pent-4-en-1-yl)hept-6-enoic acid (stitching residue), C=CCCCC(CCCC=C)(N[*:1])C(=O)[*:2]; B5(5) = 2,2-bis(4-pentenyl)glycine, 2-amino-2-(pent-4-en-1-yl)hept-6-enoic acid (stitching residue), C=CCCCC(CCCC=C)(N[*:1])C(=O)[*:2]; Phe(4-CF3) = N[C@@H](Cc1ccc(C(F)(F)F)cc1)C(=O)O; Phe(2-Cl) = N[C@@H](Cc1ccccc1Cl)C(=O)O; 2Nal = N[C@@H](Cc1ccc2ccccc2c1)C(=O)O; Bta = N[C@@H](Cc1csc2ccccc12)C(=O)O; αAllylPro = C=CC[C@@]1(C(=O)O)CCCN1; Cha = N[C@@H](CC1CCCCC1)C(=O)O

[
  {
    "binder": "Ac-[αAllylPro]D[Cha][B5(4)]DDLLFS[PyrS2″][Phe(2-Cl)][Bta]Q-NH2 (staple 1-4, 4-11) [I-1149]",
    "EC50 [nM]": 70
  },
  {
    "binder": "Ac-[αAllylPro]D[Cha][B5(4)]DDAAFL[PyrS2″][Phe(2-Cl)][Bta][dT]-NH2 (staple 1-4, 4-11) [I-1140]",
    "EC50 [nM]": 33
  },
  {
    "binder": "Ac-[αAllylPro]D[2Nal][B5(4)]DDAAFL[PyrS2″][Phe(2-Cl)][Bta]S-NH2 (staple 1-4, 4-11) [I-1117]",
    "EC50 [nM]": 55
  },
  {
    "binder": "Ac-[αAllylPro]D[Cha][B5(4)]DDAA[Phe(4-CF3)]S[PyrS2″]F[Bta]Q-NH2 (staple 1-4, 4-11) [I-1126]",
    "EC50 [nM]": 32
  },
  {
    "binder": "Ac-[αAllylPro]D[Cha][B5(5)]DDAAF[Cha][PyrS2″][Phe(2-Cl)][Bta]S-NH2 (staple 1-4, 4-11) [I-1113]",
    "EC50 [nM]": 64
  }
]
